- METHOD NOTES: In vivo vancomycin detection in ISF versus plasma after intravenous vancomycin
- Parameters: species or system Wistar rats
- RUN PARAMETERS: Wistar, rat, plasma, 1 mg/rat; 5 min after intravenous injection; read-out: vancomycin concentration in plasma
- Experimental: In vivo collection of ISF and glucose and vancomycin detection: All animal experiments were approved by the Animal Care and Use Committee of University of California, Los Angeles, and procedures for animals were performed in accordance with the relevant guidelines and regulations. […] Gauze was used to fix the patches 10 on the skin. ten minutes later, the patch 10 was removed and the final mass was recorded. […]
QUANTITY KIND: concentration at 5 min (ng/mL)

>>> numeric_result("CN[C@H](CC(C)C)C(=O)N[C@H]1C(=O)N[C@@H](CC(N)=O)C(=O)N[C@H]2C(=O)N[C@H]3C(=O)N[C@H](C(=O)N[C@H](C(=O)O)c4cc(O)cc(O)c4-c4cc3ccc4O)[C@H](O)c3ccc(c(Cl)c3)Oc3cc2cc(c3O[C@@H]2O[C@H](CO)[C@@H](O)[C@H](O)[C@H]2O[C@H]2C[C@](C)(N)[C@H](O)[C@H](C)O2)Oc2ccc(cc2Cl)[C@H]1O")
8270

###

- METHOD NOTES: In vivo vancomycin detection in ISF versus plasma after intravenous vancomycin
- Parameters: species or system Wistar rats
- RUN PARAMETERS: Wistar, rat, interstitial fluid (ISF), intravenous, 1 mg/rat; 60 min after injection; read-out: vancomycin concentration in ISF
QUANTITY KIND: concentration at 60 min

>>> result("CN[C@H](CC(C)C)C(=O)N[C@H]1C(=O)N[C@@H](CC(N)=O)C(=O)N[C@H]2C(=O)N[C@H]3C(=O)N[C@H](C(=O)N[C@H](C(=O)O)c4cc(O)cc(O)c4-c4cc3ccc4O)[C@H](O)c3ccc(c(Cl)c3)Oc3cc2cc(c3O[C@@H]2O[C@H](CO)[C@@H](O)[C@H](O)[C@H]2O[C@H]2C[C@](C)(N)[C@H](O)[C@H](C)O2)Oc2ccc(cc2Cl)[C@H]1O")
"~4000 ng/mL"

###

- METHOD NOTES: In vivo vancomycin detection in ISF versus plasma after intravenous vancomycin
- Design: species or system Wistar rats
- RUN PARAMETERS: Wistar, rat, interstitial fluid (ISF), 1 mg/rat; 5 min after intravenous injection; read-out: vancomycin concentration in ISF
QUANTITY KIND: concentration at 5 min (ng/mL)

>>> numeric_result("CN[C@H](CC(C)C)C(=O)N[C@H]1C(=O)N[C@@H](CC(N)=O)C(=O)N[C@H]2C(=O)N[C@H]3C(=O)N[C@H](C(=O)N[C@H](C(=O)O)c4cc(O)cc(O)c4-c4cc3ccc4O)[C@H](O)c3ccc(c(Cl)c3)Oc3cc2cc(c3O[C@@H]2O[C@H](CO)[C@@H](O)[C@H](O)[C@H]2O[C@H]2C[C@](C)(N)[C@H](O)[C@H](C)O2)Oc2ccc(cc2Cl)[C@H]1O")
5930

###

- METHOD NOTES: In vivo vancomycin detection in ISF versus plasma after intravenous vancomycin
- Set-up: species or system Wistar rats
- RUN PARAMETERS: Wistar, rat, interstitial fluid (ISF), intravenous, 1 mg/rat; 30 min following injection; read-out: vancomycin concentration in ISF
- Method: In vivo collection of ISF and glucose and vancomycin detection: All animal experiments were approved by the Animal Care and Use Committee of University of California, Los Angeles, and procedures for animals were performed in accordance with the relevant guidelines and regulations. […] Gauze was used to fix the patches 10 on the skin. ten minutes later, the patch 10 was removed and the final mass was recorded. […]
QUANTITY KIND: concentration at 30 min

>>> result("CN[C@H](CC(C)C)C(=O)N[C@H]1C(=O)N[C@@H](CC(N)=O)C(=O)N[C@H]2C(=O)N[C@H]3C(=O)N[C@H](C(=O)N[C@H](C(=O)O)c4cc(O)cc(O)c4-c4cc3ccc4O)[C@H](O)c3ccc(c(Cl)c3)Oc3cc2cc(c3O[C@@H]2O[C@H](CO)[C@@H](O)[C@H](O)[C@H]2O[C@H]2C[C@](C)(N)[C@H](O)[C@H](C)O2)Oc2ccc(cc2Cl)[C@H]1O")
"~6500 ng/mL"

###

- METHOD NOTES: In vivo vancomycin detection in ISF versus plasma after intravenous vancomycin
- Design: species or system Wistar rats
- RUN PARAMETERS: Wistar, rat, plasma, intravenous, 1 mg/rat; 30 min following injection; read-out: vancomycin concentration in plasma
QUANTITY KIND: concentration at 30 min

>>> result("CN[C@H](CC(C)C)C(=O)N[C@H]1C(=O)N[C@@H](CC(N)=O)C(=O)N[C@H]2C(=O)N[C@H]3C(=O)N[C@H](C(=O)N[C@H](C(=O)O)c4cc(O)cc(O)c4-c4cc3ccc4O)[C@H](O)c3ccc(c(Cl)c3)Oc3cc2cc(c3O[C@@H]2O[C@H](CO)[C@@H](O)[C@H](O)[C@H]2O[C@H]2C[C@](C)(N)[C@H](O)[C@H](C)O2)Oc2ccc(cc2Cl)[C@H]1O")
"~6500 ng/mL"
